Origin of the recorded values: the supplement of paper PMC11061612

Test system: L-363 (Plasma Cell Myeloma)
Experiment: Bliss excess, mean over the matrix (fraction); higher = more synergy
Label No if Bliss excess falls below 0.06; label Yes in every other case.

# compound, class_label
records = [
    ("C=CCn1c(=O)c2cnc(Nc3ccc(N4CCN(C)CC4)cc3)nc2n1-c1cccc(C(C)(C)O)n1 [AZD1775] + C1CN(CCC1(C(=O)N[C@@H](CCO)C2=CC=C(C=C2)Cl)N)C3=NC=NC4=C3C=CN4 [Capivasertib] (first compound max 3 µM, partner max 3 µM)", "No"),
    ("CN(C)CCCOc1ccc(-c2ccc3ncc4c(c3c2)n(C2CCOCC2)c(=O)n4C)cn1 [AZD0156] + C[C@@H]1COCCN1C2=NC(=NC(=C2)C3(CC3)[S@](=N)(=O)C)C4=C5C=CNC5=NC=C4 [AZD6738] (first compound max 1 µM, 7x7, partner max 10 µM)", "Yes"),
    ("CCN(CCO)CCCOc1ccc2c(Nc3cc(CC(=O)Nc4cccc(F)c4)[nH]n3)ncnc2c1 [AZD2811] + O=C(c1cc(Cc2n[nH]c(=O)c3ccccc23)ccc1F)N1CCN(C(=O)C2CC2)CC1 [Olaparib] (first compound max 1 µM, 7x7, partner max 10 µM)", "No"),
    ("COc1cccc(OCCCN)c1-c1cc(Nc2cnc(C#N)cn2)n[nH]1 [Prexasertib] + CCc1c2c(nc3ccc(O)cc13)-c1cc3c(c(=O)n1C2)COC(=O)[C@]3(O)CC [SN-38] (first compound max 1 µM, 7x7, partner max 0.3 µM)", "No"),
    ("CN(CCO)CC[C@H](CSc1ccccc1)Nc1ccc(S(=O)(=O)NC(=O)c2ccc(N3CCC([C@@H](O)c4ccccc4-c4ccc(Cl)cc4)CC3)cc2)cc1S(=O)(=O)C(F)(F)F [AZD4320] + C1CN(CCC1(C(=O)N[C@@H](CCO)C2=CC=C(C=C2)Cl)N)C3=NC=NC4=C3C=CN4 [Capivasertib] (first compound max 1 µM, 7x7, partner max 3 µM)", "Yes"),
]

* * *

System: OCI-M1 (Acute Myeloid Leukemia)
Experiment: Bliss excess, mean over the matrix (fraction); higher = more synergy
property_measured: Bliss excess

# molecule, property_measured, recorded_value
rows = [
    ("Cn1cnc2c(F)c(Nc3ccc(Br)cc3Cl)c(C(=O)NOCCO)cc21 [Selumetinib] + CC(C)n1c(=O)n(C)c2cnc3cc(F)c(-c4ccc(OCCCN5CCCCC5)nc4)cc3c21 [AZD1390] (first compound max 10 µM, 7x7, partner max 0.3 µM)", "Bliss excess", 0.0164),
    ("Cn1cnc2c(F)c(Nc3ccc(Br)cc3Cl)c(C(=O)NOCCO)cc21 [Selumetinib] + C[C@@H]1COCCN1C2=NC(=NC(=C2)C3(CC3)[S@](=N)(=O)C)C4=C5C=CNC5=NC=C4 [AZD6738] (first compound max 10 µM, 7x7, partner max 10 µM)", "Bliss excess", 0.0217),
    ("CS(=O)(=O)CCNCc1ccc(-c2ccc3ncnc(Nc4ccc(OCc5cccc(F)c5)c(Cl)c4)c3c2)o1 [Lapatinib] + C[C@@H](Oc1cc(-c2cnn(C3CCNCC3)c2)cnc1N)c1c(Cl)ccc(F)c1Cl [Crizotinib] (first compound max 10 µM, 7x7, partner max 10 µM)", "Bliss excess", -0.0347),
    ("CC1(C)CCC(CN2CCN(c3ccc(C(=O)NS(=O)(=O)c4ccc(NCC5CCOCC5)c([N+](=O)[O-])c4)c(Oc4cnc5[nH]ccc5c4)c3)CC2)=C(c2ccc(Cl)cc2)C1 [Venetoclax] + C[C@@H]1COCCN1C2=NC(=NC(=C2)C3(CC3)[S@](=N)(=O)C)C4=C5C=CNC5=NC=C4 [AZD6738] (first compound max 1 µM, 7x7, partner max 10 µM)", "Bliss excess", -0.0106),
    ("CC(=O)c1c(C)c2cnc(Nc3ccc(N4CCNCC4)cn3)nc2n(C2CCCC2)c1=O [Palbociclib] + Cn1cnc2c(F)c(Nc3ccc(Br)cc3Cl)c(C(=O)NOCCO)cc21 [Selumetinib] (first compound max 10 µM, 7x7, partner max 10 µM)", "Bliss excess", 0.0125),
    ("Cc1c2c(nn1C)CSCc1cc(n(C)n1)CSc1cc(c3ccccc3c1)OCCCc1c(C(=O)O)n(C)c3c-2c(Cl)ccc13 [AZD5991] + C=CCn1c(=O)c2cnc(Nc3ccc(N4CCN(C)CC4)cc3)nc2n1-c1cccc(C(C)(C)O)n1 [AZD1775] (first compound max 1 µM, partner max 1 µM)", "Bliss excess", 0.0066),
    ("Cc1nc(Nc2ncc(C(=O)Nc3c(C)cccc3Cl)s2)cc(N2CCN(CCO)CC2)n1 [Dasatinib] + CC(=O)Nc1cccc(-n2c(=O)n(C3CC3)c(=O)c3c(Nc4ccc(I)cc4F)n(C)c(=O)c(C)c32)c1 [Trametinib] (first compound max 2 µM, 7x7, partner max 1 µM)", "Bliss excess", 0.0346),
]

* * *

Tested on: RS4-11 (B-Lymphoblastic Leukemia)
Experiment: combination Emax (second highest fraction inhibited in the dose matrix, 72 h); higher = more inhibition; extreme values may be limits of the assay

# compound, combination Emax
measured = [
    ("CC(=O)c1c(C)c2cnc(Nc3ccc(N4CCNCC4)cn3)nc2n(C2CCCC2)c1=O [Palbociclib] + CN(CC[C@H](CSC1=CC=CC=C1)NC2=C(C=C(C=C2)S(=O)(=O)NC(=O)C3=CC=C(C=C3)N4CCC(CC4)[C@H](C5=CC=CC=C5C6=CC=C(C=C6)Cl)O)S(=O)(=O)C(F)(F)F)CCO [AZD4320] (first compound max 10 µM, 7x7, partner max 1 µM)", 1),
    ("Cc1cc2ncnn2cc1Nc1ncc2c(n1)n(C1CCOCC1)c(=O)n2C [AZD7648] + O=C(c1cc(Cc2n[nH]c(=O)c3ccccc23)ccc1F)N1CCN(C(=O)C2CC2)CC1 [Olaparib] (first compound max 10 µM, 7x7, partner max 10 µM)", 0.484),
]

* * *

Test system: C32 (Melanoma)
Assay: combination Emax (second highest fraction inhibited in the dose matrix, 72 h); higher = more inhibition; extreme values may be limits of the assay

# molecule, combination Emax
records = [
    ("CC(=O)Nc1cccc(-n2c(=O)n(C3CC3)c(=O)c3c(Nc4ccc(I)cc4F)n(C)c(=O)c(C)c32)c1 [Trametinib] + Cc1nc(-c2cn3c(n2)-c2ccc(-c4cnn(C(C)(C)C(N)=O)c4)cc2OCC3)n(C(C)C)n1 [Taselisib] (first compound max 1 µM, 7x7, partner max 10 µM)", 1),
    ("COc1cccc(OCCCN)c1-c1cc(Nc2cnc(C#N)cn2)n[nH]1 [Prexasertib] + CN(C)CCCOc1ccc(-c2ccc3ncc4c(c3c2)n(C2CCOCC2)c(=O)n4C)cn1 [AZD0156] (first compound max 1 µM, 7x7, partner max 1 µM)", 0.774),
]

* * *

Each entry below lists one item and its recorded Bliss excess value.
Tested on: C32 (Melanoma)
Test: Bliss excess, mean over the matrix (fraction); higher = more synergy
property_measured: Bliss excess

# compound, subject_of_test, property_measured, recorded_value
measured = [
    ("CN(CCO)CC[C@H](CSc1ccccc1)Nc1ccc(S(=O)(=O)NC(=O)c2ccc(N3CCC([C@@H](O)c4ccccc4-c4ccc(Cl)cc4)CC3)cc2)cc1S(=O)(=O)C(F)(F)F [AZD4320] + C=CCn1c(=O)c2cnc(Nc3ccc(N4CCN(C)CC4)cc3)nc2n1-c1cccc(C(C)(C)O)n1 [AZD1775] (first compound max 1 µM, partner max 1 µM)", "C32 (Melanoma)", "Bliss excess", 0.108),
    ("COc1cccc(OCCCN)c1-c1cc(Nc2cnc(C#N)cn2)n[nH]1 [Prexasertib] + Cc1cc2ncnn2cc1Nc1ncc2c(n1)n(C1CCOCC1)c(=O)n2C [AZD7648] (first compound max 1 µM, 7x7, partner max 10 µM)", "C32 (Melanoma)", "Bliss excess", -0.004),
    ("C=CCn1c(=O)c2cnc(Nc3ccc(N4CCN(C)CC4)cc3)nc2n1-c1cccc(C(C)(C)O)n1 [AZD1775] + C1CN(CCC1(C(=O)N[C@@H](CCO)C2=CC=C(C=C2)Cl)N)C3=NC=NC4=C3C=CN4 [Capivasertib] (first compound max 3 µM, partner max 3 µM)", "C32 (Melanoma)", "Bliss excess", -0.0772),
]

* * *

Tested on: NCI-H1975 (Lung Adenocarcinoma)
Assay: Bliss excess, mean over the matrix (fraction); higher = more synergy

# molecule, Bliss excess
data = [
    ("Cc1c2c(nn1C)CSCc1cc(n(C)n1)CSc1cc(c3ccccc3c1)OCCCc1c(C(=O)O)n(C)c3c-2c(Cl)ccc13 [AZD5991] + CC1(C)CCC(CN2CCN(c3ccc(C(=O)NS(=O)(=O)c4ccc(NCC5CCOCC5)c([N+](=O)[O-])c4)c(Oc4cnc5[nH]ccc5c4)c3)CC2)=C(c2ccc(Cl)cc2)C1 [Venetoclax] (first compound max 1 µM, 7x7, partner max 1 µM)", -0.0053),
    ("NC1(C(=O)N[C@@H](CCO)c2ccc(Cl)cc2)CCN(c2ncnc3[nH]ccc23)CC1 [Capivasertib] + CC(C)n1c(=O)n(C)c2cnc3cc(F)c(-c4ccc(OCCCN5CCCCC5)nc4)cc3c21 [AZD1390] (first compound max 10 µM, 7x7, partner max 0.3 µM)", -0.0165),
    ("CN(CCO)CC[C@H](CSc1ccccc1)Nc1ccc(S(=O)(=O)NC(=O)c2ccc(N3CCC([C@@H](O)c4ccccc4-c4ccc(Cl)cc4)CC3)cc2)cc1S(=O)(=O)C(F)(F)F [AZD4320] + Cc1cc2ncnn2cc1Nc1ncc2c(n1)n(C1CCOCC1)c(=O)n2C [AZD7648] (first compound max 1 µM, 7x7, partner max 10 µM)", -0.0283),
    ("COc1cccc(OCCCN)c1-c1cc(Nc2cnc(C#N)cn2)n[nH]1 [Prexasertib] + CCc1c2c(nc3ccc(O)cc13)-c1cc3c(c(=O)n1C2)COC(=O)[C@]3(O)CC [SN-38] (first compound max 1 µM, 7x7, partner max 0.3 µM)", 0.108),
    ("C=CCn1c(=O)c2cnc(Nc3ccc(N4CCN(C)CC4)cc3)nc2n1-c1cccc(C(C)(C)O)n1 [AZD1775] + C1CN(CCC1(C(=O)N[C@@H](CCO)C2=CC=C(C=C2)Cl)N)C3=NC=NC4=C3C=CN4 [Capivasertib] (first compound max 3 µM, partner max 3 µM)", -0.0668),
    ("NC1(C(=O)N[C@@H](CCO)c2ccc(Cl)cc2)CCN(c2ncnc3[nH]ccc23)CC1 [Capivasertib] + COc1nnc2ccc(N3CCC(c4ccc(OCCN5CCN(C)C(=O)[C@H]5C)cc4)CC3)nn12 [AZD5153] (first compound max 10 µM, 7x7, partner max 1 µM)", -0.0761),
    ("CN(CCO)CC[C@H](CSc1ccccc1)Nc1ccc(S(=O)(=O)NC(=O)c2ccc(N3CCC([C@@H](O)c4ccccc4-c4ccc(Cl)cc4)CC3)cc2)cc1S(=O)(=O)C(F)(F)F [AZD4320] + CCN(CCO)CCCOc1ccc2c(Nc3cc(CC(=O)Nc4cccc(F)c4)[nH]n3)ncnc2c1 [AZD2811] (first compound max 1 µM, 7x7, partner max 1 µM)", -0.0226),
]
